Tested on: Monocotyledonous and dicotyledonous test plants
assay: Example B1 herbicidal action, application pre-emergence (Table B1b)
Assay type: in vivo
applied-conditions: Digitaria, 250 g/ha, evaluated after 4 weeks
Kindly return T if reported herbicidal action (damage rating 0-10), Digitaria is no lower than 9; return F if it is lower.

| molecule | category-label |
| --- | --- |
| Cc1ccccc1C(F)(F)S(=O)(=O)C1=NOC(C)(C)C1 [1.92] | T |
| CC1(C)CC(S(=O)(=O)C(C(=O)C2CC2)c2c(F)cccc2F)=NO1 (stereo not shown) [Compound No. 1.54] | F |
| CC1(C)CC(S(=O)(=O)C(Br)c2ccccc2)=NO1 (racemic) [1.81] | F |
| Cc1ccc(F)c(C(Cl)S(=O)(=O)C2=NOC(C)(C)C2)c1F (stereo not shown) [1.145] | T |
| COc1c(C(F)(F)S(=O)(=O)C2=NOC(C)(C)C2)c(C(F)(F)F)nn1C [Compound No. 2.23] | F |
| CC1(C)CC(S(=O)(=O)C(Cl)c2c(F)cccc2F)=NO1 (stereo not shown) [Compound No. 1.07] | T |
| CC1(C)CC(S(=O)(=O)C(F)(F)c2ccccc2SC(F)(F)F)=NO1 [1.70] | T |
| Cn1nc(C(F)(F)F)c(C(F)(Cl)S(=O)(=O)C2=NOC(C)(C)C2)c1OC(F)F (stereo not shown) [2.14] | T |
| CC1(C)CC(S(=O)(=O)C(Cn2cncn2)c2c(F)cccc2F)=NO1 (racemic) [Compound No. 1.90] | F |
| CC1(C)CC(S(=O)(=O)C(Cl)c2cccnc2Cl)=NO1 (stereo not shown) [8.01] | F |
| COc1ccccc1C(F)(F)S(=O)(=O)C1=NOC(C)(C)C1 [1.107] | F |
| CC1(C)CC(S(=O)(=O)C(F)(Cl)c2cc(F)cc(F)c2)=NO1 (stereo not shown) [1.125] | T |
| CC1(C)CC(S(=O)(=O)C(C(N)=O)c2c(F)cccc2F)=NO1 (stereo not shown) [Compound No. 1.23] | F |
| CC1(C)CC(S(=O)(=O)C(F)(F)c2ccc(F)cc2F)=NO1 [1.118] | T |

---

Test system: Monocotyledonous and dicotyledonous test plants
assay: Example B1 herbicidal action, application post-emergence (Table B1a)
Format: in vivo
applied-conditions: Digitaria, 250 g/ha, evaluated after 3 weeks, scale 0-10
Entries and their herbicidal damage rating, Digitaria

| compound | herbicidal damage rating, Digitaria |
| --- | --- |
| CC1(C)CC(S(=O)(=O)C(F)(F)c2ccccc2F)=NO1 | 8 |
| COc1ccccc1C(F)(F)S(=O)(=O)C1=NOC(C)(C)C1 | 8 |
| Cc1ccccc1C(F)(F)S(=O)(=O)C1=NOC(C)(C)C1 | 8 |
| CC1(C)CC(S(=O)(=O)C(F)(F)c2ccccc2[S+]([O-])C(F)(F)F)=NO1 (racemic) | 8 |
| CC1(C)CC(S(=O)(=O)C(F)(F)c2ccccc2OC(F)F)=NO1 | 8 |
| CC1(C)CC(S(=O)(=O)C(Cl)c2cccnc2Cl)=NO1 (stereo not shown) | 0 |
| CC1(C)CC(S(=O)(=O)C(F)(F)c2c(F)cccc2F)=NO1 | 6 |
| Cn1nc(C(F)(F)F)c(C(F)(Cl)S(=O)(=O)C2=NOC(C)(C)C2)c1OC(F)F (stereo not shown) | 7 |
| CC1(C)CC(S(=O)(=O)C(F)(Cl)c2ccccc2C#N)=NO1 (racemic) | 8 |
| Cc1ccc(F)c(C(F)(F)S(=O)(=O)C2=NOC(C)(C)C2)c1F | 8 |
| CC1(C)CC(S(=O)(=O)C(F)(F)c2cc(F)cc3c2OCOC3)=NO1 | 6 |
| COC(=O)c1ccc(C(F)(F)S(=O)(=O)C2=NOC(C)(C)C2)c(F)c1 | 3 |
| Cc1ccccc1C(F)S(=O)(=O)C1=NOC(C)(C)C1 (racemic) | 7 |
| CC1(C)CC(S(=O)(=O)C(F)(I)c2c(F)cccc2F)=NO1 (racemic) | 7 |
| CC(=O)C(c1c(F)cccc1F)S(=O)(=O)C1=NOC(C)(C)C1 (stereo not shown) | 2 |
| CC1(C)CC(S(=O)(=O)C(Br)c2c(F)cccc2F)=NO1 (stereo not shown) | 6 |
| CC1(C)CC(S(=O)(=O)C(F)(Cl)c2ccccc2-c2ccccc2)=NO1 (stereo not shown) | 5 |
| Cn1nc(C(F)(F)F)c(C(F)(F)S(=O)(=O)C2=NOC(C)(C)C2)c1OCC(F)(F)F | 7 |
| COc1ccccc1C(F)(Cl)S(=O)(=O)C1=NOC(C)(C)C1 (stereo not shown) | 8 |

---

Entries and their herbicidal action (damage rating 0-10), Digitaria
Tested on: Monocotyledonous and dicotyledonous test plants
assay: Example B1 herbicidal action, application pre-emergence (Table B1b)
Type: in vivo
applied-conditions: Digitaria, 250 g/ha, evaluated after 4 weeks
endpoint: herbicidal action (damage rating 0-10), Digitaria

| compound | value |
| --- | --- |
| CC1(C)CC(S(=O)(=O)C(Br)c2cc(F)cc3c2OCOC3)=NO1 (stereo not drawn) [1.103] | 9 |
| CC1(C)CC(S(=O)(=O)C(I)c2c(F)cccc2F)=NO1 (stereo not drawn) [Compound No. 1.25] | 10 |
| CC1(C)CC([S+]([O-])C(Cl)c2c(F)cccc2F)=NO1 (mixture of isomers) [1.24] | 8 |
| Cc1cccc(C(Cl)S(=O)(=O)C2=NOC(C)(C)C2)c1 (stereo not drawn) [Compound No. 1.30] | 9 |
| C=CC1CC1(c1c(F)cccc1F)S(=O)(=O)C1=NOC(C)(C)C1 (stereo not drawn) [Compound No. 1.46] | 6 |
| CC1(C)CC(S(=O)(=O)C(Br)c2cc(F)cc(F)c2)=NO1 (stereo not drawn) [1.134] | 10 |
| CCOc1c(C(F)(F)S(=O)(=O)C2=NOC(C)(C)C2)c(C(F)(F)F)nn1C [2.17] | 8 |
| CC1(C)CC(S(=O)(=O)C(Br)c2c(F)cccc2F)=NO1 (stereo not drawn) [Compound No. 1.19] | 10 |
| Cn1nc(C(F)(F)F)c(C(Cl)S(=O)(=O)C2=NOC(C)(C)C2)c1OC(F)F (stereo not drawn) [2.16] | 10 |

---

Tested on: Monocotyledonous and dicotyledonous test plants
assay: Example B1 herbicidal action, application pre-emergence (Table B1b)
Format: in vivo
applied-conditions: Amaranthus, 250 g/ha, evaluated after 4 weeks
endpoint: herbicidal action (damage rating 0-10), Amaranthus

| molecule | value |
| --- | --- |
| Cn1nc(C(F)(F)F)c(C(F)(Cl)S(=O)(=O)C2=NOC(C)(C)C2)c1OCC(F)(F)F (stereo not drawn) [2.12] | 10 |
| CC1(C)CC(S(=O)(=O)C(Cl)c2c(F)cccc2F)=NO1 (stereo not drawn) [Compound No. 1.07] | 8 |
| Cn1nc(C(F)(F)F)c(C(Br)(Br)S(=O)(=O)C2=NOC(C)(C)C2)c1OCC(F)(F)F [2.09] | 10 |
| CC1(C)CC(S(=O)(=O)C(F)(F)c2ccccc2OC(F)(F)F)=NO1 [1.67] | 10 |
| COc1cc(C(F)S(=O)(=O)C2=NOC(C)(C)C2)on1 (stereo not drawn) [Compound No. 5.03] | 10 |
| Cc1onc(C2CC2)c1C(Cl)S(=O)(=O)C1=NOC(C)(C)C1 (stereo not drawn) [Compound No. 3.07] | 4 |
| CCOc1c(C(F)(F)S(=O)(=O)C2=NOC(C)(C)C2)c(C(F)(F)F)nn1C [2.17] | 10 |
| CC1(C)CC(S(=O)(=O)C(c2c(F)cccc2F)S(=O)(=O)Cc2ccccc2)=NO1 (stereo not drawn) [1.39] | 3 |
| CC1(C)CC(S(=O)(=O)C(Br)(Br)c2c(F)cccc2F)=NO1 [1.50] | 10 |

---

System: Monocotyledonous and dicotyledonous test plants
assay: Example B1 herbicidal action, application post-emergence (Table B1a)
Assay type: in vivo
applied-conditions: Digitaria, 250 g/ha, evaluated after 3 weeks, scale 0-10
endpoint: herbicidal damage rating, Digitaria

| molecule | target-or-test-system | endpoint | value |
| --- | --- | --- | --- |
| Cc1ccc(F)c(C(F)S(=O)(=O)C2=NOC(C)(C)C2)c1F (centres unmarked) | Monocotyledonous and dicotyledonous test plants | herbicidal damage rating, Digitaria | 8 |
| CC1(C)CC(S(=O)(=O)C(F)(Cl)c2ccccc2)=NO1 (racemic) | Monocotyledonous and dicotyledonous test plants | herbicidal damage rating, Digitaria | 8 |
| CC1(C)CC(S(=O)(=O)C(Cl)(Cl)c2c(F)cccc2F)=NO1 | Monocotyledonous and dicotyledonous test plants | herbicidal damage rating, Digitaria | 4 |
| CC1(C)CC(S(=O)(=O)C(F)c2cccnc2Cl)=NO1 (centres unmarked) | Monocotyledonous and dicotyledonous test plants | herbicidal damage rating, Digitaria | 6 |
| Cn1nc(C(F)(F)F)c(C(Cl)(Cl)S(=O)(=O)C2=NOC(C)(C)C2)c1OCC(F)(F)F | Monocotyledonous and dicotyledonous test plants | herbicidal damage rating, Digitaria | 5 |
| Cn1nc(C(F)(F)F)c(C(Cl)(Cl)S(=O)(=O)C2=NOC(C)(C)C2)c1OC(F)F | Monocotyledonous and dicotyledonous test plants | herbicidal damage rating, Digitaria | 6 |
| CC1(C)CC(S(=O)(=O)C(F)(Cl)c2cccnc2Cl)=NO1 (centres unmarked) | Monocotyledonous and dicotyledonous test plants | herbicidal damage rating, Digitaria | 7 |
| CCOC(=O)c1ccc(C(F)(F)S(=O)(=O)C2=NOC(C)(C)C2)c(F)c1 | Monocotyledonous and dicotyledonous test plants | herbicidal damage rating, Digitaria | 8 |
| CC1(C)CC([S+]([O-])C(Cl)c2c(F)cccc2F)=NO1 (mixture of isomers) | Monocotyledonous and dicotyledonous test plants | herbicidal damage rating, Digitaria | 6 |
| CC1(C)CC(S(=O)(=O)C(F)(F)c2cc(F)cc(F)c2)=NO1 | Monocotyledonous and dicotyledonous test plants | herbicidal damage rating, Digitaria | 8 |
| COCCC(c1c(F)cccc1F)S(=O)(=O)C1=NOC(C)(C)C1 (centres unmarked) | Monocotyledonous and dicotyledonous test plants | herbicidal damage rating, Digitaria | 6 |
| Cn1nc(C(F)(F)F)c(C(Cl)S(=O)(=O)C2=NOC(C)(C)C2)c1OCC(F)(F)F (centres unmarked) | Monocotyledonous and dicotyledonous test plants | herbicidal damage rating, Digitaria | 4 |
| COc1ccccc1C(F)S(=O)(=O)C1=NOC(C)(C)C1 (centres unmarked) | Monocotyledonous and dicotyledonous test plants | herbicidal damage rating, Digitaria | 8 |
| CC1(C)CC(S(=O)(=O)C(F)(Cl)c2cc(F)ccc2F)=NO1 (centres unmarked) | Monocotyledonous and dicotyledonous test plants | herbicidal damage rating, Digitaria | 8 |
| CC1(C)CC(S(=O)(=O)C(C)(F)c2c(F)cccc2F)=NO1 (centres unmarked) | Monocotyledonous and dicotyledonous test plants | herbicidal damage rating, Digitaria | 6 |
| CC1(C)CC(S(=O)(=O)C(F)(F)c2ccccc2C(F)(F)F)=NO1 | Monocotyledonous and dicotyledonous test plants | herbicidal damage rating, Digitaria | 8 |
| CC1(C)CC(S(=O)(=O)C(F)(F)c2ccccc2)=NO1 | Monocotyledonous and dicotyledonous test plants | herbicidal damage rating, Digitaria | 8 |
| Cn1nc(C(F)(F)F)c(C(F)(Cl)S(=O)(=O)C2=NOC(C)(C)C2)c1OCC(F)(F)F (centres unmarked) | Monocotyledonous and dicotyledonous test plants | herbicidal damage rating, Digitaria | 6 |
| C=C(OC(C)=O)C(F)(c1c(F)cccc1F)S(=O)(=O)C1=NOC(C)(C)C1 (racemic) | Monocotyledonous and dicotyledonous test plants | herbicidal damage rating, Digitaria | 7 |
| Cn1nc(C(F)(F)F)c(C(Cl)S(=O)(=O)C2=NOC(C)(C)C2)c1Cl (centres unmarked) | Monocotyledonous and dicotyledonous test plants | herbicidal damage rating, Digitaria | 3 |
| CCOC(=O)c1ccc(C(F)(Cl)S(=O)(=O)C2=NOC(C)(C)C2)c(F)c1 (centres unmarked) | Monocotyledonous and dicotyledonous test plants | herbicidal damage rating, Digitaria | 4 |
| Cn1nc(C(F)(F)F)c(C(Br)(Br)S(=O)(=O)C2=NOC(C)(C)C2)c1OCC(F)(F)F | Monocotyledonous and dicotyledonous test plants | herbicidal damage rating, Digitaria | 8 |
| CC1(C)CC(S(=O)(=O)C(c2c(F)cccc2F)C(F)(F)F)=NO1 (centres unmarked) | Monocotyledonous and dicotyledonous test plants | herbicidal damage rating, Digitaria | 8 |
| CC1(C)CC(S(=O)(=O)C(Cl)c2cc(F)cc3c2OCOC3)=NO1 (centres unmarked) | Monocotyledonous and dicotyledonous test plants | herbicidal damage rating, Digitaria | 7 |
| CC1(C)CC(S(=O)(=O)C(F)(Cl)c2cc(F)cc(F)c2)=NO1 (centres unmarked) | Monocotyledonous and dicotyledonous test plants | herbicidal damage rating, Digitaria | 8 |
| CC1(C)CC(S(=O)(=O)C(F)(F)c2ccccc2C#N)=NO1 | Monocotyledonous and dicotyledonous test plants | herbicidal damage rating, Digitaria | 7 |
| CC1(C)CC(S(=O)(=O)C(Cl)c2ccccc2OC(F)(F)F)=NO1 (centres unmarked) | Monocotyledonous and dicotyledonous test plants | herbicidal damage rating, Digitaria | 7 |
| CC1(C)CC(S(=O)(=O)C(I)c2c(F)cccc2F)=NO1 (centres unmarked) | Monocotyledonous and dicotyledonous test plants | herbicidal damage rating, Digitaria | 4 |
| C#CCC(c1c(F)cccc1F)S(=O)(=O)C1=NOC(C)(C)C1 (centres unmarked) | Monocotyledonous and dicotyledonous test plants | herbicidal damage rating, Digitaria | 6 |
